Provenance of the data: ChEMBL document CHEMBL2331173

Molecular target: Sarcoplasmic/endoplasmic reticulum calcium ATPase 1 (Oryctolagus cuniculus, UniProt P04191)
Sequence (P04191 whole entry): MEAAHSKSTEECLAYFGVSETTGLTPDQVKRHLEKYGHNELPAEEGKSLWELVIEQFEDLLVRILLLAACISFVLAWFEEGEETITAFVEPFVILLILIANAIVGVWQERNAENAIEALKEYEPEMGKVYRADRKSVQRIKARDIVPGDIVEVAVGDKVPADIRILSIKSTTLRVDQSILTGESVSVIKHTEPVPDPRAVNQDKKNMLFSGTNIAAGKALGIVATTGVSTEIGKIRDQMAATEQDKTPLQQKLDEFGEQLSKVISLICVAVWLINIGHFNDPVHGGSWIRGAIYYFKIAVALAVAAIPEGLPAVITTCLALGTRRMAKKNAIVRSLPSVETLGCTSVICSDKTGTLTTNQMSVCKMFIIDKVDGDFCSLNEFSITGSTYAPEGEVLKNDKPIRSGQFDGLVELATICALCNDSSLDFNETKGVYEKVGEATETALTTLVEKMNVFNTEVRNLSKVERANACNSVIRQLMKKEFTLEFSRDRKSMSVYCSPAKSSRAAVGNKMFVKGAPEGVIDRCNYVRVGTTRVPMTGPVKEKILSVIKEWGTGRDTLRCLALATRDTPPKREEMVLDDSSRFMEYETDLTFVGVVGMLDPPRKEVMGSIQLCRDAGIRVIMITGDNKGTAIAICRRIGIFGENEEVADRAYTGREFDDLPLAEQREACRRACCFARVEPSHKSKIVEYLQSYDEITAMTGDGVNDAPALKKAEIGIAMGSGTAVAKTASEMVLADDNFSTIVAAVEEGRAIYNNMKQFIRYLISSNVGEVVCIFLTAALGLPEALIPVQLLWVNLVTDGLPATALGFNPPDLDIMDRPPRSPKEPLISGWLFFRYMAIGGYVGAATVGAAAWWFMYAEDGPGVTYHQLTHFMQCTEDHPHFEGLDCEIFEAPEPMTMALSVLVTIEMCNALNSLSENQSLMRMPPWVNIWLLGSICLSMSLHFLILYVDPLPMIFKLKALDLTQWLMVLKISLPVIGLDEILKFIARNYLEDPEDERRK
Experiment: Binding affinity to SERCA1a in sarcoplasmic reticulum vesicles of rabbit skeletal muscle after 2.5 to 6 mins by spectrophotometric analysis
outcome.measure: pKd
# pKd: negative log10 of molar concentration; output just the value

C/C=C(/C)C(=O)O[C@H]1C(C)=C2[C@H]([C@@H]1OC(=O)CCCCCCC)[C@@](C)(OC(C)=O)C[C@H](OC(=O)CCC)[C@@]1(O)[C@H]2O[C@H]2N=C(CCC)O[C@]21C
7.70
C/C=C(/C)C(=O)O[C@H]1C(C)=C2[C@H]([C@@H]1OC(=O)CCCCCCC)[C@@](C)(OC(=O)CCCCCCC)C[C@H](OC(=O)CCC)[C@@]1(O)[C@H]2OC(=O)[C@@]1(C)O
8.60

Let us examine a further case.
# pKd of C/C=C(/C)C(=O)O[C@H]1C(C)=C2[C@H]([C@@H]1OC(=O)CCCCCCC)[C@@](C)(OC(C)=O)C[C@H](OC(=O)CCC)[C@@]1(OC(=O)CCCCC)[C@H]2OC(=O)[C@@]1(C)O = 8.07

----------
Target: Sarcoplasmic/endoplasmic reticulum calcium ATPase 1 (Oryctolagus cuniculus, UniProt P04191)
Test: Binding affinity to SERCA1a in sarcoplasmic reticulum vesicles of rabbit skeletal muscle after 2.5 to 6 mins by spectrophotometric analysis
Entries and their measured pKd follow.
# pKd: negative log10 of molar concentration; output just the value

A selection of reference data follows.
C/C=C(/C)C(=O)O[C@H]1C(C)=C2[C@H]([C@@H]1OC(=O)CCCCCCC)[C@@](C)(OC(C)=O)C[C@H](OC(=O)CCC)[C@@]1(O)[C@H]2O[C@H](OC(C)=O)[C@@]1(C)OC(C)=O (relative stereo)
8.03
C/C=C(/C)C(=O)O[C@H]1C(C)=C2[C@H]([C@@H]1OC(=O)CCCCCCC)[C@@](C)(OC(C)=O)C[C@H](OC(=O)CCC)[C@@]1(OC(=O)CCCCCCC)[C@H]2OC(=O)[C@@]1(C)O
7.26
C/C=C(/C)C(=O)O[C@H]1C(C)=C2[C@H]([C@@H]1OC(=O)CCCCCCC)[C@@](C)(OC(C)=O)C[C@H](OC(=O)CCC)[C@]13O[C@]1(C)C(=O)O[C@@H]23
7.89
C/C=C(/C)C(=O)O[C@H]1C(C)=C2[C@H]([C@@H]1OC(=O)CCCCCCC)[C@@](C)(OC(C)=O)C[C@H](OC(=O)CCC)[C@@]1(O)[C@H]2O[C@H]2N=C(CCOCC)O[C@]21C
7.10

# pKd of C/C=C(/C)C(=O)O[C@H]1C(C)=C2[C@H]([C@@H]1OC(=O)CCCCCCC)[C@@](C)(OC(C)=O)C[C@H](OC(=O)CCC)[C@@]1(OC(=O)C(C)C)[C@H]2OC(=O)[C@@]1(C)O = 7.89

----------
Target: Sarcoplasmic/endoplasmic reticulum calcium ATPase 1 (Oryctolagus cuniculus, UniProt P04191)
Assay: Binding affinity to SERCA1a in sarcoplasmic reticulum vesicles of rabbit skeletal muscle after 2.5 to 6 mins by spectrophotometric analysis
Entries and their measured log10(Kd) follow.
Values below are the log10 of the recorded Kd, with nM as the unit.

A selection of reference data follows.
C/C=C(/C)C(=O)O[C@H]1C(C)=C2[C@H]([C@@H]1OC(=O)CCCCCCC)[C@@](C)(OC(C)=O)C[C@H](OC(=O)CCC)[C@@]1(O)[C@H]2OC(=O)[C@@]1(C)O [THAPSIGARGIN]
-0.70
C/C=C(/C)C(=O)O[C@H]1C(C)=C2[C@H]([C@@H]1OC(=O)c1ccccc1)[C@@](C)(OC(C)=O)C[C@H](OC(=O)CCC)[C@@]1(O)[C@H]2OC(=O)[C@@]1(C)O
0.18
C/C=C(/C)C(=O)O[C@H]1C(C)=C2[C@H]([C@@H]1OC(=O)CCCCCCC)[C@@](C)(OC(C)=O)C[C@H](O)[C@@]1(O)[C@H]2OC(=O)[C@@]1(C)O [DEBUTANOYLTHAPSIGARGIN]
1.00
C/C=C(/C)C(=O)O[C@H]1C(C)=C2[C@H]([C@@H]1OC(=O)CCCCCCC)[C@@](C)(OC(C)=O)C[C@H](OC(=O)CCC)[C@@]1(O)[C@H]2O[C@H]2N=C(C)O[C@]21C
0.23

# log10(Kd) of C/C=C(/C)C(=O)O[C@H]1C(C)=C2[C@H]([C@@H]1OC(=O)CCCCCCC)[C@@](C)(OC(C)=O)C[C@H](OC(=O)CCC)[C@@]1(OC(=O)CCC)[C@H]2OC(=O)[C@@]1(C)O = 1.04

# log10(Kd) of C/C=C(/C)C(=O)O[C@H]1C(C)=C2[C@H]([C@@H]1OC(=O)CCCCCCC)[C@@](C)(OC(C)=O)C[C@H](OC(=O)CCC)[C@@]1(OC(C)=O)[C@H]2OC(=O)[C@@]1(C)O = 0.41
